# Tested on: BT-549 breast
# PROTOCOL: NCI-60 one-dose screen, 48 h (100 = growth as untreated, 0 = no growth, -100 = all killed)
# SETTINGS: 10 µM unless noted
Compounds without any hit were thinned out: in the full panel of roughly 83,000, 20% have a hit.
Can you tell me growth for the items I'm about to list?
Give a bare numeral; the unit % is implied.

Given the compound `COc1ccc(Cl)cc1NC(N)=S` , what is its reported growth?
107

What value of growth has been recorded for this entry: CCCC(C(=O)OCC)C(C)OC(=O)OCC (stereo not given)
115

Can you share its growth? I mean this compound: CN(C)C1CCC(NC2=CC(=O)C=CC2=O)CC1 (stereo not given)
114

Look at this compound and give its reported growth. `Nc1nc(-c2cc3ccccc3o2)cc(=O)c(=O)[nH]1`
106

Entry `CC1=CNNc2c3ncnc-3ncn21` : reported growth = ?
106

###

# Tested on: UACC-257 melanoma
# PROTOCOL: NCI-60 one-dose screen, 48 h (100 = growth as untreated, 0 = no growth, -100 = all killed)
# SETTINGS: 10 µM
About 83,000 compounds went through this panel and 20% of them were active in at least one assay; those are over-represented in the sample as a whole.
Entries get a class label from measured growth. See ranges: low = under 50%, middle = from 50% up to 80%, high = 80% and over

Into which bin does this molecule go? `COc1cc(CNC(=O)CSc2nc3ccccc3c(=O)n2Cc2cc(OC)c(OC)c(OC)c2)cc(OC)c1OC`
high

Please indicate the class for `Cc1ccc(Cn2c(-c3cccs3)nc3ccccc32)cc1` based on its growth.
high

Sort `COc1cc(OC)c(C(=O)/C=C/c2ccc(C(F)(F)F)cc2)c(OC)c1` into one of the categories.
middle

Which class is correct for the following molecule? `Clc1cccc(Cl)c1Cn1c(-c2cncs2)nc2ccccc21`
middle

Exam item: assign O=C(O)C(Cc1ccccc1)N1C(=O)/C(=C/C(Cl)=C/c2ccc([N+](=O)[O-])cc2)SC1=S (centres undefined) to the correct category.
low

Field: class (growth) — entry: `CCn1cc(C(=O)O)c(=O)c2cc(F)c(N3CCN(S(=O)(=O)c4ccc(Cl)cc4Cl)CC3)cc21`
low

Class label required: O=C(CC(O)c1ccncc1)c1ccccc1 (centres undefined)
high

Hi there! Could you help me figure out the category for `CNC(=O)Cc1nc(-c2cccc(NS(=O)(=O)c3c(F)cccc3F)c2F)c(-c2ccnc(Nc3ccccc3)n2)s1` please?
low

# classify by growth band: `COc1ccc(-n2cnc3c(sc4ncc(Cl)cc43)c2=O)cc1`
high

Textbook exercise: identify the category of the molecule given here, `CCC1=C[C@@H]2CN(C1)Cc1c([nH]c3ccccc13)[C@@](C(=O)OC)(c1cc3c(cc1OC)N(C=O)[C@H]1[C@@](O)(C(=O)OC)[C@H](OC(C)=O)[C@]4(CC)[C@@H]5C[C@@H]5CN5CC[C@]31[C@@H]54)C2` , according to its measured value.
middle

Lab log: COc1cc(C2C=C(C)N=C3SC=CN32)cc(OC)c1OC (centres undefined) — assign growth category
high

Input `COc1cccc(-c2nc3sccn3c2-c2ccnc(NCCCNS(=O)(=O)c3ccccc3)n2)c1` ; output its category
middle

// bin(item) where item = `COc1cc(NCCN=C(N)NC(N)=NC(C)C)c2ncccc2c1`
middle

Band for the recorded growth of `COc1ccc(/C=C/c2cc(N3CCOCC3)c3cc(F)c(F)cc3n2)cc1OC` ?
low

State the class of the molecule shown: CCCCCCC[C@@H](O)CC(=O)N[C@H](CCCCN)C(=O)N[C@H](Cc1c[nH]c2ccccc12)C(=O)NC(CCCCN)C(=O)N[C@H](CC(C)C)C(=O)N[C@H](Cc1ccccc1)C(=O)N[C@H](CCCCN)C(=O)N[C@H](CCCCN)C(=O)N[C@H](CC(C)C)C(=O)N1CCCC1C(=O)N[C@H](CCCCN)C(=O)N[C@H](Cc1ccccc1)C(=O)N[C@H](CC(C)C)C(=O)N[C@H](Cc1c[nH]cn1)C(=O)N[C@H](CC(C)C)C(=O)N[C@H](C)C(=O)N[C@H](CCCCN)C(=O)N[C@H](CCCCN)C(=O)N[C@H](Cc1ccccc1)C(=O)O (some centres undefined)
low

Kindly identify the class of O=C(COc1ccccc1)N1N=C(c2ccc(Cl)cc2)CC1c1c[nH]c2ccccc12 (centres undefined) .
high

###

# System: SNB-75 CNS
# PROTOCOL: NCI-60 one-dose screen, 48 h
# SETTINGS: 10 µM unless noted
The panel holds about 83,000 compounds, 20% with a hit somewhere; the sample as a whole holds those more often. The source made the active and inactive calls. Rule for the calls: active = growth percent below 10; inactive = the rest.
Select the matching outcome among true (1) (active), false (0) (inactive)

State the result this test recorded for `O=C(Nc1cc(C(F)(F)F)cc(C(F)(F)F)c1)Nc1ccc(OCc2nnc(-c3ccc(Cl)cc3)o2)c(F)c1` .
false (0)

How was `O=c1[nH]c2ccccc2cc1-c1nnc(Cc2ccccc2)o1` classified in this test?
false (0)

Outcome? `C=CCn1c(C)nc2ccc(Nc3nc(Nc4ccc(F)cc4)nc4ccccc34)cc21`
false (0)

Short answer needed: outcome of this test for `Cc1ccnc2nc(C(=O)OCC(=O)Nc3ccc(-c4ccccc4)cc3)nn12` ?
false (0)

Could you please tell me the result logged for CCCCOc1nc2c(C)cccc2cc1C1CNC(=O)c2ccccc2N1 (centres undefined) in this assay?
false (0)

Lab log entry: `O=S(=O)(NCCCNc1nccc(-c2c(-c3ccccc3)nc3sccn23)n1)c1ccc(F)cc1` — outcome as called in the assay?
false (0)

Per the records of this test, what outcome belongs to `CC(C)(C)OC(=O)N[C@@H](Cc1ccccc1)C(=O)N(Cc1ccccc1)C1(C(=O)NCc2ccccc2)CCN(Cc2ccccc2)CC1` ?
false (0)

Given `O=S(=O)(NCCCNc1cc(-c2cn(-c3ccccc3)nc2-c2cccc(O)c2)ccn1)c1cccc(F)c1` , state the outcome it received in this test.
false (0)

For `C=C1C(=O)O[C@H]2[C@H]1CC/C(COC(=O)NCCc1cccc(OC)c1)=C\CC[C@@]1(C)O[C@@H]21` , which call appears in the assay record?
false (0)

What did the test return for `O=C(Nc1cccc(C(F)(F)F)c1)Nc1ccc(OCc2nnc(-c3ccccc3)o2)c(F)c1` ?
false (0)

Name the outcome recorded for `COc1cc(OC)c(C(=O)/C=C/c2ccc(C(F)(F)F)cc2)c(OC)c1` in the assay.
false (0)

Short answer needed: outcome of this test for `Clc1nc2ccccc2nc1CI` ?
false (0)

Write down the call the test reported for this compound. Item: `O=C1CCC/C=C\C[C@H]2C=CC(=O)/C2=C/C[C@H](C/C=C\CC(F)(F)F)O1`
false (0)

Recorded test outcome, item CCN1C(=O)N(CC)C2C1NN=c1s/c(=C\c3ccccn3)c(=O)n12 (centres undefined)
true (1)

###

# System: K-562 leukemia
# PROTOCOL: NCI-60 one-dose screen, 48 h (100 = growth as untreated, 0 = no growth, -100 = all killed)
# SETTINGS: 10 µM unless noted
The panel holds about 83,000 compounds, 20% with a hit somewhere; the sample as a whole holds those more often.
Please mark 1 if the recorded growth is equal to or greater than 90%, and -1 if it falls below.

Can `C=C1C(=O)O[C@H]2[C@H]1CC/C(COC(=O)NCc1cc(OC)c(OC)c(OC)c1)=C\CC[C@@]1(C)O[C@@H]21` be said to have growth at or above 90%?
-1

growth >= 90% for CC(C)C(C(=O)CCN(C)C)c1ccc(Cl)cc1 (centres undefined) ?
1

Kindly determine if growth recorded for CCCCn1c(=O)c(C2CNC(=O)c3ccccc3N2)cc2ccccc21 (centres undefined) is above or exactly 90%.
1

Answer whether growth of `CC(C)(C)OC(=O)N[C@@H](Cc1ccccc1)C(=O)N(Cc1ccccc1)C1(C(=O)NCc2ccccc2)CCN(Cc2ccccc2)CC1` is greater than or equal to 90%.
-1

Is growth at least 90%? Consider `COc1ccc(NC(=O)/N=c2\oc3c(OC)cccc3cc2-c2cc3ccccc3[nH]2)cc1`
-1

Could you please find out whether `ClC1=C(Cl)C(Cl)=C(Cl)C1=Cc1ccc(Cl)cc1Cl` has growth that meets 90% or exceeds it?
-1

Kindly determine if growth recorded for COc1cc(C2C=C(C)N=C3SC=C(C)N32)cc(OC)c1OC (centres undefined) is above or exactly 90%.
-1

Item Cc1ccc(S(=O)(=O)OC2COCOC2C(OS(=O)(=O)c2ccc(C)cc2)C2OCOCC2OS(=O)(=O)c2ccc(C)cc2)cc1 (centres undefined) with growth of 90% or above?
1

Would you say `CC(=O)OC[Si](C)(C)c1ccccc1` shows growth at minimum 90%?
1

Quick check, growth >= 90%? `CC1=CNNc2c3ncnc-3ncn21`
1

Is growth at least 90%? Consider COc1ccc(C2SCC(=O)N2NC(=O)c2ccc(NC(=O)c3ccccn3)cc2)cc1OC (centres undefined)
1

hey, is growth for this one >= 90%? CCC1CCc2nc3sc(C(=O)Nc4ccccc4F)c(N)c3cc2C1 (centres undefined)
-1

Form field: growth at least 90%? Entry: `O=C(CCCn1c(=O)c2sc3ccccc3c2n2nnc(-c3ccccc3)c12)NCCc1cnc[nH]1`
-1

Say whether CCN1C(=O)N(CC)C2Nn3c(s/c(=C\c4cccc(F)c4)c3=O)=NC21 (centres undefined) shows growth of 90% or more.
-1

Form field: growth at least 90%? Entry: `CCN(CC)P(=O)(N(CC)CC)N(CCCSC/C=C(\C)CC/C=C(\C)CCC=C(C)C)CCCN1CCN(C)CC1`
-1

Test whether the molecule CCCCCCCCCN1C(=O)/C(=c2\sc3n(c2=O)C2C(NN=3)N(CC)C(=O)N2CC)c2ccccc21 (centres undefined) records growth of 90% or higher.
-1

Check the entry `O=C(/C=C/CN1CCOCC1)Nc1cc2c(Nc3ccc(F)c(Cl)c3F)ncnc2cc1OCCOC(F)F` : does growth equal or exceed 90%?
-1

Assess whether reported growth for `O=P([O-])(O)OP(=O)([O-])O.[NH-][C@H]1CCCC[C@@H]1[NH-].[OH-].[OH-].[Pt+4]` sits at 90% or higher.
1

Textbook exercise: given the entry `COc1ccc(/C=C/C(=O)c2cc(OC)c(OC)c(OC)c2)cc1OCc1cn(Cc2ccc(F)cc2)nn1` , state whether its growth is greater than or equal to 90%.
-1

Hi, just wondering whether `C=CCN=C1NC(=O)/C(=C/c2cc(C(C)(C)C)c(O)c(C(C)(C)C)c2)S1` shows growth of 90% or higher.
-1

Say whether `COc1cc2c(cc1OCCCCn1c(-c3cc(=O)c4ccccc4o3)nc3ccccc31)N=C[C@@H]1CCCN1C2=O` shows growth of 90% or more.
-1

Is reported growth greater than or equal to 90% here: `COC(=O)c1ccc(C)cc1`
1

I'd appreciate it if you could say whether `Nc1c(C(=O)Nc2c(Cl)cccc2Cl)sc2nc3c(cc12)CCCCC3` has growth at least equal to 90%.
-1

Does growth meet or surpass 90% for `COc1ccc(/C=C\c2cc(OC)c(OC)c(OC)c2)c(NS(=O)(=O)c2ccc(C(C)(C)C)cc2)c1O` ?
-1

Quick check: does `NC(=S)NN=C1CCCCC1` have growth greater than or equal to 90%?
-1

Is reported growth greater than or equal to 90% here: `COc1cc(CNC(=O)CCSc2nc3ccccc3c(=O)n2Cc2cc(OC)c(OC)c(OC)c2)cc(OC)c1OC`
-1

Answer whether growth of CC(Cc1nnc(SCC(=O)Nc2ccc(I)cc2)n1N)c1ccccc1 (centres undefined) is greater than or equal to 90%.
-1

Quick check: does Clc1ccc2c(c1)NC1(CCSc3ccccc31)n1nccc1-2 (centres undefined) have growth greater than or equal to 90%?
1
